- EXPERIMENTAL_DETAILS: Reversibility of acyl methylenes in phosphate buffer
- Type: physicochemical
- PARTICULARS: 50 mM phosphate buffer, pH 7.4, room temperature, read-out: Half Life pH = 7.4 (converted)
- Description: A prodrug strategy was devised using cyclized PFT-β and a structure activity relationship to obtain a prodrug linkage that converts to the native drug with about a 3 day half-life. […] All of the compounds of Table 2 were diluted into 50 mM phosphate buffer at pH=7.4 and pH=4.8 at room temperature and analyzed over time for stability. The amount of PFT-β was quantitated, and the amount of acyl methylene disappearing over time was quantitated by LCMS. […]

STRUCTURE_SMILES_STRING: Cc1ccc(-c2cn3c4c(sc3[n+]2COC(=O)c2ccc(CN(CP(=O)(O)O)CP(=O)(O)O)cc2)CCCC4)cc1
VALUE_OPERATOR: =
half-life at 100 µM (h): 77.4

STRUCTURE_SMILES_STRING: CC(=O)OC[n+]1c(-c2ccc(C)cc2)cn2c3c(sc21)CCCC3
VALUE_OPERATOR: >
half-life at 100 µM (h): 500

====

- EXPERIMENTAL_DETAILS: Reversibility of acyl methylenes in phosphate buffer
- Type: physicochemical
- PARTICULARS: 50 mM phosphate buffer, pH 4.8, room temperature, read-out: Half Life pH = 4.8
half-life at 100 µM values for the compounds below.
ENDPOINT_LABEL: half-life at 100 µM

STRUCTURE_SMILES_STRING: Cc1ccc(-c2cn3c4c(sc3[n+]2COC(=O)c2ccc(CN(CP(=O)(O)O)CP(=O)(O)O)cc2)CCCC4)cc1
READOUT_VALUE: > 20.8 days

STRUCTURE_SMILES_STRING: CC(=O)OC[n+]1c(-c2ccc(C)cc2)cn2c3c(sc21)CCCC3
READOUT_VALUE: > 20.8 days
